# STUDY TARGET: Lyn tyrosine kinase (Homo sapiens (Human))
# Sequence (P07948 whole entry): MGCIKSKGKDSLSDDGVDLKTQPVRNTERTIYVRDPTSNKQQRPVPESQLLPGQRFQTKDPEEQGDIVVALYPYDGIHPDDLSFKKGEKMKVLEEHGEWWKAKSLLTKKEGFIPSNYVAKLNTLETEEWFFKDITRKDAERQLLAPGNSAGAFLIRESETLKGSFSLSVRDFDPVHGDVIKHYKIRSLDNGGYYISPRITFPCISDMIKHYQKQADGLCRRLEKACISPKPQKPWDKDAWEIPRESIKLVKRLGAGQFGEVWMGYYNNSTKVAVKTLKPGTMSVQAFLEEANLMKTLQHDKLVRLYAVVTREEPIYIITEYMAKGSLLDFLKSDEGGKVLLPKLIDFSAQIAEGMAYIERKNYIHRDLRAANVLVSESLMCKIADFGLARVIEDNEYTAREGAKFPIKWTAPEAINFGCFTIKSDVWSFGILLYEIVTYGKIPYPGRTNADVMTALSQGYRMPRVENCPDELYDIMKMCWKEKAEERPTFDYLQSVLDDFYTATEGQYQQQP
# PROTOCOL TEXT: in vitro Lyn tyrosine kinase inhibition
# Format: biochemical
# EXPERIMENTAL SETUP: 1 uM compound; read-out: % inhibition against Lyn
REPORTED METRIC: inhibition at 1 µM

Completed entries (count: 2):
O=C(Cc1ccc(-c2cc3ncnc(Nc4cccc(O)c4)c3s2)cc1)N1CCCC1 [LCB 03-0049] : > 40%
Oc1cccc(Nc2ncnc3cc(-c4ccc(CN5CCCC5)o4)sc23)c1 [LCB 03-0086] : > 70%

Reported inhibition at 1 µM, compound Cl.Oc1cccc(Nc2ncnc3cc(-c4cccc(CN5CCNCC5)c4)sc23)c1 [LCB 03-0064] : ____
> 80%

Reported inhibition at 1 µM, compound CCNCc1cccc(-c2cc3nccc(Nc4cccc(O)c4)c3s2)c1 [LCB 03-0112] : ____
> 80%

Reported inhibition at 1 µM, compound CCNCc1cccc(-c2cc3ncnc(Nc4cccc(O)c4)c3s2)c1.Cl [LCB 03-0065] : ____
> 80%

Reported inhibition at 1 µM, compound CN1CCN(C(=O)Cc2ccc(-c3cc4ncnc(Nc5cccc(O)c5)c4s3)cc2)CC1 [LCB 03-0047] : ____
> 20%

Reported inhibition at 1 µM, compound COc1cccc(Nc2ncnc3cc(-c4ccoc4)sc23)c1 [LCB 03-0024] : ____
> 30%

Reported inhibition at 1 µM, compound CN1CCN(Cc2coc(-c3cc4ncnc(Nc5cccc(O)c5)c4s3)c2)CC1 [LCB 03-0114] : ____
> 50%

Reported inhibition at 1 µM, compound CCN(CC)Cc1cccc(-c2cc3ncnc(Nc4cccc(O)c4)c3s2)c1.Cl [LCB 03-0063] : ____
> 80%

Reported inhibition at 1 µM, compound Oc1cccc(Nc2ccnc3cc(-c4cccc(CN5CCNCC5)c4)sc23)c1 [LCB 03-0111] : ____
> 80%

Reported inhibition at 1 µM, compound COc1cccc(Nc2ncnc3cc(-c4ccsc4)sc23)c1 [LCB 03-0028] : ____
> 30%

Reported inhibition at 1 µM, compound Oc1cccc(Nc2ncnc3cc(-c4ccccc4)sc23)c1 [LCB 03-0008] : ____
> 70%

Reported inhibition at 1 µM, compound Oc1cccc(Nc2ncnc3cc(-c4cc(CN5CCCCC5)co4)sc23)c1 [LCB 03-0115] : ____
> 50%

Reported inhibition at 1 µM, compound Oc1cccc(Nc2ncnc3cc(-c4ccco4)sc23)c1 [LCB 03-0038] : ____
> 60%

Reported inhibition at 1 µM, compound O=C(c1cccc(-c2cc3ncnc(Nc4cccc(O)c4)c3s2)c1)N1CCCC1 [LCB 03-0053] : ____
> 70%

Reported inhibition at 1 µM, compound Oc1cccc(Nc2ncnc3cc(-c4ccsc4)sc23)c1 [LCB 03-0031] : ____
> 30%
